Record set: pIC50 | cGMP-dependent 3',5'-cyclic phosphodiesterase (Homo sapiens, UniProt O00408) | literature, multiple sources.
pIC50 here is simply -log10 of the concentration when that concentration is written in mol/L.

So the reported pIC50 for O=C(NC1(c2ccc(C(F)(F)F)cn2)CCOCC1O)c1cnn2cc(C3CC3)cnc12 (racemic) , on cGMP-dependent 3',5'-cyclic phosphodiesterase (Homo sapiens, UniProt O00408), turned out to be 6.91

So the reported pIC50 for CCOC(C(=O)c1ccc(-c2cc(OC)c(Cl)c(OC)c2)o1)c1ccc(-c2nnc(C)s2)cc1 (racemic) , on cGMP-dependent 3',5'-cyclic phosphodiesterase (Homo sapiens, UniProt O00408), turned out to be 6.26

So the reported pIC50 for Cc1nc2ccc(C(F)(F)F)nc2n2c(-c3cc(C4(O)CCCOC4)ccc3Cl)nnc12 (racemic) , on cGMP-dependent 3',5'-cyclic phosphodiesterase (Homo sapiens, UniProt O00408), turned out to be 7.66

So the reported pIC50 for Cc1nn2cc(C3CC3)cnc2c1C(=O)NC1(c2ccc(C(F)(F)F)nc2)CCOC1 (racemic) , on cGMP-dependent 3',5'-cyclic phosphodiesterase (Homo sapiens, UniProt O00408), turned out to be 6.89

So the reported pIC50 for O=C(NC1(c2ccc(C(F)(F)F)cc2F)COCC1O)c1cnn2cc(C3CC3)cnc12 (single isomer, unassigned) , on cGMP-dependent 3',5'-cyclic phosphodiesterase (Homo sapiens, UniProt O00408), turned out to be 5.76

So the reported pIC50 for O=C(NC1(c2ccc(C(F)(F)F)cc2)CCOCC1O)c1cnn2cc(C3CC3)cnc12 (stereo not shown) , on cGMP-dependent 3',5'-cyclic phosphodiesterase (Homo sapiens, UniProt O00408), turned out to be 7.66

So the reported pIC50 for "Cc1cnc2c(C(=O)NC3(c4ccc(C(F)(F)F)cn4)CCOCC3)cnn2c1" , on cGMP-dependent 3',5'-cyclic phosphodiesterase (Homo sapiens, UniProt O00408), turned out to be 6.12

So the reported pIC50 for "Cc1cnc2c(C(=O)NC3(c4ccc(C(F)(F)F)nc4)CCOCC3)c(C)nn2c1" , on cGMP-dependent 3',5'-cyclic phosphodiesterase (Homo sapiens, UniProt O00408), turned out to be 6.76

So the reported pIC50 for "Cc1cnc2c(C(=O)NC3(c4ccc(OC(F)F)c(F)c4)CCOCC3)cnn2c1" , on cGMP-dependent 3',5'-cyclic phosphodiesterase (Homo sapiens, UniProt O00408), turned out to be 6.13
